All values here come from paper PMC12269619.

# system: P3-19
# test.method.notes: BLI
pKd: −log10 of the molar value. Ends that are not written are not given here.
property: pKd

binder | value.measured
NPDPNANPNVDPNAN (also: biotinylated, position not given here) [Biotinylated junctional peptide Pep21 (PfCSP peptide 21)] | 7.84
